Here, each record is paired with measured MIC data.
- Tested on: Staphlococcus aureus
Give your result in µg/mL as a bare value.

Observe how each entry below is paired with its result.
compound="CC=C(COc1cc(Cl)sn1)C(=O)OCC [Compound 3]" numeric_result=8
compound="C=C(COc1cc(Cl)sn1)C(=O)O [Compound 10]" numeric_result=64
compound="CC=C(COc1cc(Cl)sn1)S(=O)(=O)c1ccccc1 [Compound 8]" numeric_result=32

Here CC(=O)C(=Cc1ccccc1)COc1cc(Cl)sn1 [Compound 5] was tested on Staphlococcus aureus, and its MIC came to 2

Here O=c1c(COc2cc(Cl)sn2)coc2ccccc12 [Compound 13] was tested on Staphlococcus aureus, and its MIC came to 8

Here O=C1C=CC(=O)C(COc2ccsn2)=C1 [Compound 15] was tested on Staphlococcus aureus, and its MIC came to 32

====

- Tested on: Aspergillus niger
- assay.method.text: Minimum inhibitory concentration by two-fold serial dilution in Trypticase Soy Broth, Aspergillus niger
- Assay type: cell-based
- condition.label: Table 2, Trypticase Soy Broth, pH 7.0, read-out: Antimicrobial Activity (MIC), Anig
rule met if MIC is below 30 µg/mL. rule not met if not; exact matches included in rule not met.

The examples below pair each entry with its known result.
compound=CC=C(COc1cc(Cl)sn1)S(=O)(=O)c1ccccc1 label="rule not met"
compound=C=C(COc1cc(Cl)sn1)C(=O)O label="rule not met"
compound=CC=C(COc1cc(Cl)sn1)C(=O)OCC label="rule met"
compound="C=C(COc1cc(Cl)sn1)[S+]([O-])c1ccccc1 (stereo not drawn)" label="rule not met"
compound=C=C(COc1cc(Cl)sn1)C(=O)NC(C)C label="rule not met"
compound=CC(=O)C(=Cc1ccccc1)COc1cc(Cl)sn1 label="rule met"
compound=C=C(COc1cc(Cl)sn1)C(=O)NCc1ccccc1 label="rule not met"
compound=C=C(COc1ccsn1)C(=O)OC label="rule not met"

Switching to the query record.
Is the reported MIC for O=c1c(COc2cc(Cl)sn2)coc2ccccc12 strictly below 30 µg/mL?
rule met

====

Here, each record is paired with measured MIC data.
- Tested on: Pseudomonas aeruginosa
- assay.method.text: Minimum inhibitory concentration by two-fold serial dilution in Trypticase Soy Broth, Pseudomonas aeruginosa
- Format: cell-based
- condition.label: Table 2, Trypticase Soy Broth, pH 7.0, read-out: Antimicrobial Activity (MIC), Psae
Give your result in µg/mL as a bare value.

compound="C=C(C(C)Oc1cc(Cl)sn1)S(=O)(=O)c1ccccc1 (centres unmarked) [Compound 7]" recorded_metric=MIC numeric_result=32
compound="C=C(COc1cc(Cl)sn1)C(=O)OC [Compound 2]" recorded_metric=MIC numeric_result=32
compound="O=C1C=CC(=O)C(COc2ccsn2)=C1 [Compound 15]" recorded_metric=MIC numeric_result=32
compound="C=C(COc1ccsn1)C(=O)OC [Compound 1]" recorded_metric=MIC numeric_result=32
compound="CC=C(COc1cc(Cl)sn1)S(=O)(=O)c1ccccc1 [Compound 8]" recorded_metric=MIC numeric_result=64

MIC reading for CC=C(COc1cc(Cl)sn1)C(=O)OCC [Compound 3] : 125

MIC reading for O=c1c(COc2cc(Cl)sn2)coc2ccccc12 [Compound 13] : 32

MIC reading for C=C(COc1cc(Cl)sn1)[S+]([O-])c1ccccc1 (centres unmarked) [Compound 6] : 125

MIC reading for CC(=O)C(=Cc1ccccc1)COc1cc(Cl)sn1 [Compound 5] : 16

====

- Test system: Pseudomonas aeruginosa
- assay.method.text: Minimum inhibitory concentration by two-fold serial dilution in Trypticase Soy Broth, Pseudomonas aeruginosa
- Assay type: cell-based
- condition.label: Table 2, Trypticase Soy Broth, pH 7.0, read-out: Antimicrobial Activity (MIC), Psae
recorded.metric: MIC (µg/mL)
Give your result in µg/mL as a bare value.

MIC reading for C=C(COc1cc(Cl)sn1)C(=O)NC(C)C [Compound 12] : 500

MIC reading for O=C1C=CC(=O)C(COc2cc(Cl)sn2)=C1 [Compound 14] : 64

====

Here, each record is paired with measured MIC data.
- System: Staphlococcus aureus
- assay.method.text: Minimum inhibitory concentration by two-fold serial dilution in Trypticase Soy Broth, Staphlococcus aureus
- Format: cell-based
- condition.label: Table 2, pH 7.0, read-out: Antimicrobial Activity (MIC), Saur

Observe how each entry below is paired with its result.
chemical_smiles=C=C(COc1cc(Cl)sn1)C(=O)OC result="4 µg/mL"
chemical_smiles=N#CC(=Cc1ccccc1)COc1cc(Cl)sn1 result="500 µg/mL"
chemical_smiles=C=C(COc1cc(Cl)sn1)C(=O)NC(C)C result="> 500 µg/mL"

Here is the next item to consider.
MIC reading for C=C(COc1cc(Cl)sn1)C(=O)NCc1ccccc1 : > 500 µg/mL

====

Quick record of MIC values for Staphlococcus aureus.
Give your result in µg/mL as a bare value.

Observe how each entry below is paired with its result.
molecule="C=C(COc1cc(Cl)sn1)[S+]([O-])c1ccccc1 (stereo not shown)" target_or_test_system="Staphlococcus aureus" numeric_result=125
molecule="C=C(C(C)Oc1cc(Cl)sn1)S(=O)(=O)c1ccccc1 (stereo not shown)" target_or_test_system="Staphlococcus aureus" numeric_result=32

Here is the next item to consider.
Here O=C1C=CC(=O)C(COc2cc(Cl)sn2)=C1 was tested on Staphlococcus aureus, and its MIC came to 64

====

Here, each record is paired with measured MIC data.
- Tested on: Aspergillus niger
- assay.method.text: Minimum inhibitory concentration by two-fold serial dilution in Trypticase Soy Broth, Aspergillus niger
- Type: cell-based
- condition.label: Table 2, Trypticase Soy Broth, pH 7.0, read-out: Antimicrobial Activity (MIC), Anig
Give your result in µg/mL as a bare value.

Observe how each entry below is paired with its result.
compound="C=C(COc1cc(Cl)sn1)C(=O)OC [Compound 2]" target_or_test_system="Aspergillus niger" recorded_metric=MIC numeric_result=1
compound="N#CC(=Cc1ccccc1)COc1cc(Cl)sn1 [Compound 4]" target_or_test_system="Aspergillus niger" recorded_metric=MIC numeric_result=500

MIC reading for O=C1C=CC(=O)C(COc2ccsn2)=C1 [Compound 15] : 16

MIC reading for CC(=O)C(=Cc1ccccc1)COc1nsc2c1CCC2 [Compound 11] : 500

MIC reading for O=C1C=CC(=O)C(COc2cc(Cl)sn2)=C1 [Compound 14] : 8

MIC reading for C=C(C(C)Oc1cc(Cl)sn1)S(=O)(=O)c1ccccc1 (stereo not drawn) [Compound 7] : 32
